Biological target: PQQGDH (Acinetobacter calcoaceticus, UniProt P13650)
Sequence (P13650 25-478): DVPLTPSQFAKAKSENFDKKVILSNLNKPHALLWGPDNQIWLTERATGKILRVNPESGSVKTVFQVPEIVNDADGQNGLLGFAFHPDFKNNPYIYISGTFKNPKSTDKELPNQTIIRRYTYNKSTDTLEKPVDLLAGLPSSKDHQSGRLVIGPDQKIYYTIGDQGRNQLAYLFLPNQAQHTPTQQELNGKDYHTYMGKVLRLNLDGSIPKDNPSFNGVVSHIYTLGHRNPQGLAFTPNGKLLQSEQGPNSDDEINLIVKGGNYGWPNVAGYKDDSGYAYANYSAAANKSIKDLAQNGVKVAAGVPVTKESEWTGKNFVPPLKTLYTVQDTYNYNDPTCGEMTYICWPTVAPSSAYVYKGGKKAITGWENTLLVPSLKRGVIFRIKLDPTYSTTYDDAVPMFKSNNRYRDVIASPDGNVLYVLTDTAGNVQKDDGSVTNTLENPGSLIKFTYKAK
Conditions: grouping of substrates
Below, each entry is listed with its recorded substrate concentration at which the maximal reaction rate was observed (cmax).
property_label: substrate concentration at which the maximal reaction rate was observed (cmax)

INSERT INTO assay_data (compound, test_result) VALUES
  ('OC[C@H]1O[C@@H](O[C@H]2[C@H](O)[C@@H](O)C(O)O[C@@H]2CO)[C@H](O)[C@@H](O)[C@H]1O (some centres unmarked)', '< 20 mM'),
  ('O=C[C@H](O)[C@@H](O)[C@H](O[C@@H]1O[C@H](CO)[C@@H](O)[C@H](O)[C@H]1O)[C@H](O)CO', '< 20 mM'),
  ('O=C[C@H](O)[C@H](O)[C@H](O)CO', '> 20 mM'),
  ('O=C[C@@H](O)[C@@H](O)[C@H](O)CO', '> 20 mM'),
  ('O=C[C@H](O)[C@@H](O)[C@H](O)CO', '> 20 mM');

---

Molecular target: PQQGDH (Acinetobacter calcoaceticus)
Conditions: pH 7.0, thionine 220 µM; substrate concentration at maximal rate, sqrt(KM·Ki)
property_label: cmax (mM)

INSERT INTO measurements (molecule, test_result) VALUES
  ('O=C[C@H](O)[C@@H](O)[C@H](O)CO [Xylose]', 88),
  ('O=C[C@H](O)[C@@H](O)[C@H](O[C@@H]1O[C@H](CO)[C@@H](O)[C@H](O)[C@H]1O)[C@H](O)CO [Cellobiose]', 2.4),
  ('O=C[C@H](O)[C@H](O)[C@H](O)CO [Ribose]', 84),
  ('OC[C@H]1O[C@@H](O[C@H]2[C@H](O)[C@@H](O)C(O)O[C@@H]2CO)[C@H](O)[C@@H](O)[C@H]1O (some centres unmarked) [Lactose]', 5.2);
